experiment.description: refractive index (Na D-line) (dimensionless); xn = mol fraction of the nth substance listed
assay.context: 318.15 K; 100.5 kPa; Liquid; Standard Abbe refractometry; x1 = 0.9
reported.endpoint: refractive index

INSERT INTO measurements (compound, recorded_value) VALUES
  ('CCOC(=O)Cc1ccccc1 [ethyl phenylacetate] + CCO', 1.48053),
  ('CCCC(=O)OCCC(C)C [3-methylbutyl butanoate] + CCO', 1.39763),
  ('CCCCCC(=O)OCC [ethyl hexanoate] + CCO', 1.39426),
  ('CCOC(=O)c1ccccc1 [ethyl benzoate] + CCO', 1.48776),
  ('CC(=O)OCCC(C)C [3-methylbutyl ethanoate] + CCO', 1.3873),
  ('CCCCCCCC(=O)OCC [ethyl octanoate] + CCO', 1.40515);

* * *

experiment.description: xn = mol fraction of the nth substance listed
assay.context: 318.15 K, x1 = 0.6
reported.endpoint: surface tension liquid-gas (mN/m)

INSERT INTO assay_data (molecule, recorded_value) VALUES
  ('CCOC(=O)Cc1ccccc1 [ethyl phenylacetate] + CCO', 27.8),
  ('CC(=O)OCCC(C)C [3-methylbutyl ethanoate] + CCO', 21.6),
  ('CCCCCCCC(=O)OCC [ethyl octanoate] + CCO', 23.8),
  ('CCCC(=O)OCCC(C)C [3-methylbutyl butanoate] + CCO', 22.3),
  ('CCCCCC(=O)OCC [ethyl hexanoate] + CCO', 22.8),
  ('CCOC(=O)c1ccccc1 [ethyl benzoate] + CCO', 27.8);

* * *

experiment.description: xn = mol fraction of the nth substance listed
assay.context: 298.15 K, x1 = 0.55
± gives the expanded uncertainty stated by the source.
reported.endpoint: surface tension liquid-gas

INSERT INTO measurements (molecule, recorded_value) VALUES
  ('CCOC(=O)Cc1ccccc1 [ethyl phenylacetate] + CCO', '29.1 ± 0.7 mN/m'),
  ('CCCCCC(=O)OCC [ethyl hexanoate] + CCO', '24.5 ± 0.6 mN/m'),
  ('CC(=O)OCCC(C)C [3-methylbutyl ethanoate] + CCO', '23.4 ± 0.4 mN/m'),
  ('CCCCCCCC(=O)OCC [ethyl octanoate] + CCO', '25.4 ± 0.6 mN/m'),
  ('CCOC(=O)c1ccccc1 [ethyl benzoate] + CCO', '29.2 ± 0.6 mN/m'),
  ('CCCC(=O)OCCC(C)C [3-methylbutyl butanoate] + CCO', '23.9 ± 0.6 mN/m');

* * *

experiment.description: refractive index (Na D-line) (dimensionless); xn = mol fraction of the nth substance listed
assay.context: 298.15 K; 100.5 kPa; Liquid; Standard Abbe refractometry; x1 = 0.55
Numbers after ± are expanded uncertainties.
Consider the following compounds and their measured refractive index readings.
reported.endpoint: refractive index

INSERT INTO results (compound, reported_endpoint, recorded_value) VALUES
  ('CCCCCCCC(=O)OCC [ethyl octanoate] + CCO', 'refractive index', '1.40451 ± 0.00032'),
  ('CCCC(=O)OCCC(C)C [3-methylbutyl butanoate] + CCO', 'refractive index', '1.39798 ± 0.00032'),
  ('CC(=O)OCCC(C)C [3-methylbutyl ethanoate] + CCO', 'refractive index', '1.38871 ± 0.00032'),
  ('CCOC(=O)Cc1ccccc1 [ethyl phenylacetate] + CCO', 'refractive index', '1.46454 ± 0.00032'),
  ('CCCCCC(=O)OCC [ethyl hexanoate] + CCO', 'refractive index', '1.39465 ± 0.00032'),
  ('CCOC(=O)c1ccccc1 [ethyl benzoate] + CCO', 'refractive index', '1.46865 ± 0.00032');

Origin of the recorded values: the NIST ThermoML archive (doi:10.1021/je0601208)
